# credit: paper PMC9402538

Molecular target: T1, APC (303-739) (UniProt P25054 303-739)
T1 construct: adenomatous polyposis coli (APC), residues 303-739; pET28a construct; also called APC WT; adenomatous polyposis coli; source: E. coli BL21 (DE3), purified (Ni-NTA)
T1 sequence (looked up): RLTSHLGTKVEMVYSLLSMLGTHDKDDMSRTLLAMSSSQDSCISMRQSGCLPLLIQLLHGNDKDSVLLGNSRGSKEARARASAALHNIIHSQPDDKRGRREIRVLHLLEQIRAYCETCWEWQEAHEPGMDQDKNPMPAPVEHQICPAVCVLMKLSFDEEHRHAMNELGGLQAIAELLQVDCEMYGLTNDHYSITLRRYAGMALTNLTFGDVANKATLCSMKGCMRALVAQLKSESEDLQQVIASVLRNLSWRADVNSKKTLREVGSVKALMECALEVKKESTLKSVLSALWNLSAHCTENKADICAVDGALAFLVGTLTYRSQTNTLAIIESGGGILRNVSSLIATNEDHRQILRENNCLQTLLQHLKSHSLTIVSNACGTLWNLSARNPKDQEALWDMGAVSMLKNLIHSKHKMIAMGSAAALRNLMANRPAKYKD
Assay: fluorescence polarisation; competition with tracer 7: 25 nM APC (303-739), serial dilution of peptide, 20 nM tracer 7; 50 mM HEPES pH 7.5, 300 mM NaCl, 1 mM EDTA, 1 mM DTT; room temperature
Conditions: both partners purified
[ ]: non-standard residue; d: D form. The star is where a group is joined. Phe(4-tBu) = CC(C)(C)c1ccc(C[C@H](N)C(=O)O)cc1; Bpa = N[C@@H](Cc1ccc(C(=O)c2ccccc2)cc1)C(=O)O; Ala(cPent) = N[C@@H](CC1CCCC1)C(=O)O; hLeu = CC(C)CC[C@H](N)C(=O)O; 2Furoyl = O=C(c1ccco1)*; Cbz = O=C(OCc1ccccc1)*; Bz = O=C(c1ccccc1)*
value type: pIC50
Just so you know, pIC50 here is -log10 of the concentration in molar units; reply with that number alone.

Given Cbz-AGES[hLeu]YE-NH2 [MAI-426] , state its recorded pIC50.
5.92

Repeat with 2Furoyl-AGESLY[Phe(4-tBu)]-NH2 (SMILES CC(C)C[C@H](NC(=O)[C@H](CO)NC(=O)[C@H](CCC(=O)O)NC(=O)CNC(=O)[C@H](C)NC(=O)c1ccco1)C(=O)N[C@@H](Cc1ccc(O)cc1)C(=O)N[C@@H](Cc1ccc(C(C)(C)C)cc1)C(N)=O) [MAI-466]
6.03

Then what about the binder Bz-AGES[Ala(cPent)]YE-NH2 (SMILES C[C@H](NC(=O)c1ccccc1)C(=O)NCC(=O)N[C@@H](CCC(=O)O)C(=O)N[C@@H](CO)C(=O)N[C@@H](CC1CCCC1)C(=O)N[C@@H](Cc1ccc(O)cc1)C(=O)N[C@@H](CCC(=O)O)C(N)=O) [MAI-461] ?
7.10

Follow-up entry: {furan‑2‑carbonyl}-AGESLY[Bpa]-NH2 [MAI-454]
6.55
